# Test system: Fusarium nivale (var. majus)
# assay_method_text: In vivo preventive test on Fusarium nivale (wheat)
# run_conditions: 500 ppm of active ingredient, evaluated 5 days after inoculation
Give measured Efficacy for each item. Keep answers brief.
Answers are plain numbers, in %.

For each listed entry, give its Efficacy.
1. CN(C[Si](C)(C)c1ccccc1)C(=O)c1c(C(F)F)nn(C)c1F
2. Cn1nc(C(F)F)c(C(=O)N(CC(F)(F)c2cc(Cl)ccc2Cl)C2CC2)c1F
3. Cn1nc(C(F)F)c(C(=O)N(C[Si](C)(C)c2ccc(Cl)cc2Cl)C2CC2)c1F
4. CC(Cc1ncc(C(F)(F)F)cc1Cl)N(C(=O)c1c(C(F)F)nn(C)c1F)C1CC1 (stereo not shown)

[83, 92, 83, 100]

====

# assay_method_text: logP by HPLC on reversed-phase column (C 18), EEC Directive 79/831 Annex V.A8
# Assay type: physicochemical
# Procedure: In table 1, the logP values were determined in accordance with EEC Directive 79/831 Annex V.A8 by HPLC (High Performance Liquid Chromatography) on a reversed-phase column (C 18), using the method described below: Temperature: 40° C.; […]
Criterion: logP strictly less than 3. Met: T. Not met: F.

Quick check: logP of Cn1nc(C(F)F)c(C(=O)NC[Si](C)(C)c2cc(Cl)cc(Cl)c2)c1F under 3? F

Quick check: logP of Cn1nc(C(F)F)c(C(=S)NC[Si](C)(C)c2ccc(Cl)cc2Cl)c1F under 3? F

Quick check: logP of COC(CNC(=O)c1c(C(F)F)nn(C)c1F)c1ccc(Cl)cc1Cl (stereo not shown) under 3? F

Quick check: logP of Cn1nc(C(F)F)c(C(=O)NCC(C)(C)c2ccc(Cl)cc2Cl)c1Cl under 3? F

Quick check: logP of Cn1nc(C(F)F)c(C(=S)NCC(C)(C)c2ccc(Cl)cc2Cl)c1Cl under 3? F

Quick check: logP of Cn1nc(C(F)F)c(C(=O)NCCc2ncc(C(F)(F)F)cc2Cl)c1F under 3? T

Quick check: logP of Cn1nc(C(F)F)c(C(=O)N(CC(F)(F)c2cc(Cl)ccc2Cl)C2CC2)c1F under 3? F

Quick check: logP of CC(CN(C)C(=O)c1c(C(F)F)nn(C)c1F)c1ccncc1 (stereo not shown) under 3? T

Quick check: logP of COc1ccc(CCN(C)C(=O)c2c(C(F)F)nn(C)c2F)cc1OC under 3? T

Quick check: logP of Cn1nc(C(F)F)c(C(=O)NC(C)(C)Cc2ccc(Oc3ccccc3)cc2)c1Cl under 3? F

Quick check: logP of Cn1nc(C(F)F)c(C(=O)NCCc2csc3c2CCCC3)c1F under 3? F

====

Give measured Efficacy for each item. Keep answers brief.
# Test system: Fusarium nivale (var. majus)
# assay_method_text: In vivo curative test on Fusarium nivale (wheat)
# run_conditions: 500 ppm of active ingredient, evaluated 5 days after inoculation
One number for each entry, in %.

# molecule, tgt, measured_value
data = [
    ("COC(CNC(=O)c1c(C(F)F)nn(C)c1Cl)c1ccc(Cl)cc1Cl (centres unmarked)", "Fusarium nivale (var. majus)", 100),
    ("CC(CN(C(=O)c1c(C(F)F)nn(C)c1F)C1CC1)c1ccccc1 (centres unmarked)", "Fusarium nivale (var. majus)", 93),
    ("CCC(NC(=O)c1c(C(F)F)nn(C)c1F)C(OC)c1ccc(Cl)cc1Cl (centres unmarked)", "Fusarium nivale (var. majus)", 100),
    ("CC(Cc1c(F)cccc1F)N(C(=O)c1c(C(F)F)nn(C)c1F)C1CC1 (centres unmarked)", "Fusarium nivale (var. majus)", 100),
    ("COC(c1cc(Cl)cc(Cl)c1)C(C)NC(=O)c1c(C(F)F)nn(C)c1F (mixture of isomers)", "Fusarium nivale (var. majus)", 100),
]

For each listed entry, give its Efficacy.
1. COC(c1cc(Cl)cc(Cl)c1)C(C)NC(=O)c1c(C(F)F)nn(C)c1Cl (mixture of isomers)
2. COC(CNC(=O)c1c(C(F)F)nn(C)c1Cl)c1cc(Cl)cc(Cl)c1 (centres unmarked)
3. COC(CNC(=O)c1c(C(F)F)nn(C)c1F)c1ccc(Cl)cc1Cl (centres unmarked)

1. 100
2. 93
3. 86
